- tgt: Lewy bodies (Homo sapiens, UniProt P37840)
- Construct: Post-mortem midbrain tissue from DLB and PD patients was obtained from the HBTRC Brain Bank at McLean Hospital; tissue HBTRC Brain Bank at McLean Hospital; host or cells: formalin-fixed post-mortem human midbrain (DLB and PD patients)
- experimentSummary: Staining of Lewy bodies in post-mortem DLB/PD midbrain tissue
- Type: binding
- assaySetup: DLB/PD post-mortem midbrain tissue; dyes in PBS at 500 nM, 2 μM, 5 μM for 30 minutes
valueKind: Lewy Bodies Contrast

Sample records with Lewy Bodies Contrast:
molecule	tgt	Lewy Bodies Contrast
O=C1NC(=S)NC(=O)C1=C/C=C/C=C/c1c(O)[nH]c(=S)[nH]c1=O [THK-265]	Lewy bodies (Homo sapiens, UniProt P37840)	+
CN(C)c1ccc(C=CC=CC2=[N+](C)c3ccccc3C2(C)C)cc1.[O-][Cl+3]([O-])([O-])[O-] [LDS 730]	Lewy bodies (Homo sapiens, UniProt P37840)	+
CCN(CC)c1ccc2nc3c4ccccc4c(=O)cc-3oc2c1 [Nile Red, 9-diethylamino-5-benzo[α]phenoxazinone]	Lewy bodies (Homo sapiens, UniProt P37840)	+
O=S(=O)([O-])c1ccccc1C=Cc1ccc(-c2ccc(C=Cc3ccccc3S(=O)(=O)[O-])cc2)cc1.[Na+].[Na+] [Stilbene 420]	Lewy bodies (Homo sapiens, UniProt P37840)	+ +
CC[n+]1ccc(C=CC=Cc2ccc(N(C)C)cc2)cc1.[O-][Cl+3]([O-])([O-])[O-] [LDS 722]	Lewy bodies (Homo sapiens, UniProt P37840)	+ +

Would you mind giving Lewy Bodies Contrast for every molecule in the list below?
1. CN1C(=CC=CC=CC=CC2=[N+](C)c3ccccc3C2(C)C)C(C)(C)c2ccccc21.[O-][Cl+3]([O-])([O-])[O-] [HITC ClO4]
2. CCN1C(=CC=CC=Cc2sc3ccccc3[n+]2CC)Sc2ccccc21.[I-] [3-3′-DTDCI, 3,3′-diethylthiadicarbocyanine iodide]
3. CCN(CC)c1ccc2nc3c(cc(N)c4ccccc43)[o+]c2c1.[O-][Cl+3]([O-])([O-])[O-] [Nile Blue 690 ClO4]

Reply:
1. +
2. +
3. + +

---

- Test system: AD Plaque
- experimentSummary: Staining of plaques in AD temporal lobe sections; also: key: positive (+) staining for both plaques and tangles; did not bind (−) AD pathology
- Type: binding, human
- assaySetup: 5 μM dye in PBS
valueKind: AD Plaque Contrast

Sample records with AD Plaque Contrast:
compound	tgt	valueKind	result
CN1C(=CC=CC=CC=CC2=[N+](C)c3ccccc3C2(C)C)C(C)(C)c2ccccc21.[O-][Cl+3]([O-])([O-])[O-]	AD Plaque	AD Plaque Contrast	−
CCN(CC)c1ccc2nc3c(cc(N)c4ccccc43)[o+]c2c1.[O-][Cl+3]([O-])([O-])[O-]	AD Plaque	AD Plaque Contrast	−
CC[n+]1ccc(C=CC=Cc2ccc(N(C)C)cc2)cc1.[O-][Cl+3]([O-])([O-])[O-]	AD Plaque	AD Plaque Contrast	+ +
CCN(CC)c1ccc2nc3c4ccccc4c(=O)cc-3oc2c1 [Nile Red, 9-diethylamino-5-benzo[α]phenoxazinone]	AD Plaque	AD Plaque Contrast	−
O=C1NC(=S)NC(=O)C1=C/C=C/C=C/c1c(O)[nH]c(=S)[nH]c1=O	AD Plaque	AD Plaque Contrast	+

Now examine the next entry.
Query: Looking for the measured AD Plaque Contrast of CCN1C(=CC=CC=Cc2sc3ccccc3[n+]2CC)Sc2ccccc21.[I-] [3-3′-DTDCI, 3,3′-diethylthiadicarbocyanine iodide] , can you help?
Reply: +

Source of measurements: patent US9242015B2
